The reported measurements were obtained from patent US8846746B2.

# SYSTEM: human SGLT1 (Homo sapiens (Human), UniProt P13866)
# Sequence (P13866 whole entry): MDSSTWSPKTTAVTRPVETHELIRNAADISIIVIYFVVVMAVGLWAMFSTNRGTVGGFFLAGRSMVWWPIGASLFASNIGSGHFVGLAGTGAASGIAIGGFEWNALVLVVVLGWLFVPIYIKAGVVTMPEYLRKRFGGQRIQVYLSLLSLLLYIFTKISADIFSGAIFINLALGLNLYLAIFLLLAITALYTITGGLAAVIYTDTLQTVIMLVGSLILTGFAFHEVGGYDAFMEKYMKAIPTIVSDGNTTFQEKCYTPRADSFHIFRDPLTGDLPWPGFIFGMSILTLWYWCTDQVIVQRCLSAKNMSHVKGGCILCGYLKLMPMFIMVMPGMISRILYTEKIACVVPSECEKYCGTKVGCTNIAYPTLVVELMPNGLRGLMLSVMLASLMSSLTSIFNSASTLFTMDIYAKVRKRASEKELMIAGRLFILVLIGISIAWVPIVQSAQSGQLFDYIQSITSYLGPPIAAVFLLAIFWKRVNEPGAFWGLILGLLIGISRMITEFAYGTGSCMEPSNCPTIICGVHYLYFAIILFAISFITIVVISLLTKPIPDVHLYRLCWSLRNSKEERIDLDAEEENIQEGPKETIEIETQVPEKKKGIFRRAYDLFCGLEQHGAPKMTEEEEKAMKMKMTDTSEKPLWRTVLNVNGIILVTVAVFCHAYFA
# PROTOCOL: SGLT1 inhibitory activity: 14C-AMG uptake into CHO-K1 cell line stably expressing human SGLT1
# Type: cell-based
# SETUP CONDITIONS: 14C-AMG uptake, CHO-K1 cells stably expressing human SGLT1
MEASURED ATTRIBUTE: IC50 (nM)

Past entries and their recorded results:
1. CCCc1cccc(-c2cc(NC(=O)[C@@H]3CNC(=O)C3)nn2-c2cccc(CC(C)C)c2)c1 [Example 496] | 6.9
2. CCOc1cc(F)cc(-n2nc(NC(=O)[C@@H]3CNC(=O)C3)cc2-c2cccc(OC(F)(F)F)c2)c1 [Example 525] | 18
3. C[C@@H](OCc1cccc(-c2cc(NC(=O)[C@@H]3CNC(=O)C3)nn2-c2ccccc2)c1)C(F)(F)F [Example 334] | 6.3
4. CC(C)(C)Oc1cccc(-c2cc(NC(=O)[C@@H]3CNC(=O)C3)nn2-c2ccccc2)c1 [Example 290] | 5.5
5. CCOc1cccc(-n2nc(NC(=O)[C@@H]3CNC(=O)C3)cc2-c2cccc(COCC(F)(F)F)c2)c1F [Example 481] | 8.7

a = CC(C)Oc1cc(-n2nc(NC(=O)[C@@H]3CNC(=O)C3)cc2-c2cccc(COCC(F)(F)F)c2)ccc1F [Example 418]
b = C[C@@H](OCc1cc(F)cc(-c2cc(NC(=O)[C@@H]3CCC(=O)N3)nn2-c2ccccc2)c1)C(F)(F)F [Example 555]
input: # compare IC50 for a vs b ; return the one with the smaller value # answer = label of selected item
output: a
